Observed Kd for UniProt:P52333, reported per entry below.
Sequence (P52333 811-1124 limits assumed): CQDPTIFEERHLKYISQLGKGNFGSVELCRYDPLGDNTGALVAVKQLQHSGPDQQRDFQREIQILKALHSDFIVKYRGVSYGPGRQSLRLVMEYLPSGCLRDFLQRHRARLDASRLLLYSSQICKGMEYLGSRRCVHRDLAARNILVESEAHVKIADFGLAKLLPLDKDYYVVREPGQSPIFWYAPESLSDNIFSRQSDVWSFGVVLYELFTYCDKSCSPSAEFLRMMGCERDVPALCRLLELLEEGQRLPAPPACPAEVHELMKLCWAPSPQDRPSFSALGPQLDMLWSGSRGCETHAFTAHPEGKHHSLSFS

compound	Kd
CN(C)c1ccc(Nc2n[nH]c(NCc3ccc(O)cc3)c2C(N)=O)cc1 [reference compound]	0.1 to 1 µM
Cc1cc(CNc2[nH]nc(Nc3ccc(N4CCC(N(C)C)CC4)cc3)c2C(N)=O)cc(C)c1O [Compound 36]	> 1 µM
Cc1cc(CNc2[nH]nc(Nc3ccc(-n4ccnc4)cc3)c2C(N)=O)cc(C)c1O [drawing 179, reference compound]	< 0.05 µM

What reported Kd corresponds to Cc1cc(CNc2[nH]nc(Nc3ccc(N4CCCCC4)cn3)c2C(N)=O)cc(C)c1O [Compound 33] on UniProt:P52333?
> 1 µM
